Ki for assorted compounds
- targetOfAssay: Human CXCR4 transfected HEK293 cells (Homo sapiens)
- Sequence (P61073 whole entry): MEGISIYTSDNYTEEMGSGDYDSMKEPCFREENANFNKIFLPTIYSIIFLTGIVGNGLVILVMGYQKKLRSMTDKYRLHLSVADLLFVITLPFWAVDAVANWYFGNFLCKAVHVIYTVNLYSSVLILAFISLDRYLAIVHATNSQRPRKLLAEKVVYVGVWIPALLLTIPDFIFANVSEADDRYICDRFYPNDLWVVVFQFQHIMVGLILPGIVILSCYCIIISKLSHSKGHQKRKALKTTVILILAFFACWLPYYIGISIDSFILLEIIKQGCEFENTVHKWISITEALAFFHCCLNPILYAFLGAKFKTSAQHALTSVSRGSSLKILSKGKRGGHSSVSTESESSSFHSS
- assaySummary: CXCR4 functional calcium assay (calcium flux FLIPR, antagonism of SDF1 response)
- experimentalSetup: CXCR4 functional activity, antagonism of SDF1 (EC50 concentration), read-out: CXCR4 fKi

Consider the following illustrative entries.
CC(C)N1CCC(N2CCCN(c3cccc(-c4ncc(C(F)(F)F)[nH]4)n3)CC2)CC1 | 0.5 to 1 µM
CC[C@H](C)N1CCC(N2CCCN(c3cccc(C(=O)Nc4ccncc4)n3)CC2)CC1 | < 0.02 µM
CC(C)N1CCC(N2CCCN(c3cccc(-c4cc5ccccc5n4C)n3)CC2)CC1 | 0.1 to 0.5 µM
Cc1cnccc1NC(=O)c1cccc(N2CCCN(C3CCN(C(C)C)CC3)CC2)n1 | < 0.02 µM
CC(C)N1CCC(N2CCCN(c3cccc(C(=O)Nc4cncs4)n3)CC2)CC1 | < 0.02 µM
CC(C)NCC(O)CN1CCCN(c2cccc(C(=O)NCc3cccnc3)n2)CC1 (stereo not drawn) | 0.1 to 0.5 µM
O=C(Nc1ccncc1)c1cccc(N2CCCN(C3CCN(Cc4ccccc4Cl)CC3)CC2)n1 | < 0.02 µM
CC(C)N1CCCC(N2CCC(Oc3cccc(C(=O)Nc4ccncc4)n3)CC2)CC1 (stereo not drawn) | 0.1 to 0.5 µM

### Prompt Bench note: what Ki did [2H]C1([2H])CCN(C2CCN(C3CCCC3)CC2)CCN1c1cccc(C(=O)Nc2ccncc2)n1 show?
### Response < 0.02 µM

### Prompt Next up: Clc1ccccc1CN1CCC(N2CCCN(c3nccs3)CC2)CC1
### Response 0.1 to 0.5 µM

###

List of pKi values.
- targetOfAssay: Human CXCR4 transfected HEK293 cells (Homo sapiens)
- assaySummary: CXCR4 functional calcium assay (calcium flux FLIPR, antagonism of SDF1 response)
- experimentalSetup: CXCR4 functional activity, antagonism of SDF1 (EC50 concentration), read-out: CXCR4 fKi
pKi: −log10 of the molar value.

Solved cases below.
Cc1nc(-c2cccc(NCCNC[C@@H]3CCN(C4CCCC4)C3)n2)[nH]c1C1CC1 [Example 247] | 7.00 to 7.70
[2H]C1([2H])CCN(c2cccc(C(=O)Nc3ccncc3)n2)CC(C)N1C1CCN(Cc2ccc(F)cc2Cl)CC1 (centres unmarked) [Example 207] | > 7.70
CC(C)N1CCC(N2CCCN(c3cccc(-c4noc(CC(C)(C)C)n4)n3)CC2)CC1 [Example 160] | 6.30 to 7.00
CC(C)N1CCC(N2CCCN(c3cccc(C(=O)N4CCc5ccccc54)n3)CC2)CC1 [Example 21] | 6.30 to 7.00
Cc1cc(NC(=O)c2cccc(N3CCCN(C4CCN(C(C)C)CC4)CC3)n2)cc(C)n1 [Example 87] | > 7.70

### Prompt Fill in: pKi of CC(C)N1CCC(N2CCCC(Nc3cccc(C(=O)Nc4ccncc4)n3)C2)CC1 (centres unmarked) [Example 222] is ___
### Response 6.00 to 6.30

### Prompt Now the same for Cc1cccc(N2CCCN(C3CCN(Cc4ccccc4Cl)CC3)CC2)n1 [Example 262]
### Response 6.00 to 6.30

### Prompt Also [2H]C1([2H])CCN(c2cccc(C(=O)Nc3ccncc3)n2)CC(C)N1C1CCN([C@@H](C)C(F)(F)F)CC1 (some centres unmarked) [Example 196] ?
### Response 7.00 to 7.70
